test: Terminal plasma concentration in rat at 5 mg/kg, po administered 5 hrs post-carrageenan challenge; assay type: ADME, organism-based; design: dose 5 mg/kg, route oral; details: read-out: Cp(T)
quantity name: concentration at 5 h (nM)
Give the quantity in nM, number only.

// returns reported concentration at 5 h for input CC(C)CN1CCN(c2nc3c(c(Nc4ccc(C(F)(F)F)cc4)n2)CCN(c2ncccc2C(F)(F)F)CC3)CC1
277

====

clearance listing for selected compounds.
assay: Clearance in fasted Sprague-Dawley rat at 0.5 mg/kg, iv and 2 mg/kg, po; assay type: ADME, organism-based; conditions: in vivo
Express your answer as a number followed by its unit.

Examples from the recorded data:
// returns reported clearance for input CC(C)N1CCN(c2nc3c(c(Nc4ccc(C(F)(F)F)cc4)n2)CCN(c2ncccc2C(F)(F)F)CC3)CC1
4.8 L/h/kg

How about this compound: CC(C)CN1CCN(c2nc3c(c(Nc4ccc(C(F)(F)F)cc4)n2)CCN(c2ncccc2C(F)(F)F)CC3)CC1
0.7 L/h/kg

New cases:
// returns reported clearance for input FC(F)(F)c1ccc(Nc2nc(N3CCN(C4CC4)CC3)nc3c2CCN(c2ncccc2C(F)(F)F)CC3)cc1
1.3 L/h/kg
